Source: paper PMC4619705

# TESTED_SYSTEM: β3γ2L GABAARs (Homo sapiens, UniProt P18507+P28472)
# Construct: expressed in transfected cells; host or cells: Xenopus laevis oocytes injected with β3 and γ2L mRNAs at 1:1 to 1:100
# Sequence (P28472 26-473): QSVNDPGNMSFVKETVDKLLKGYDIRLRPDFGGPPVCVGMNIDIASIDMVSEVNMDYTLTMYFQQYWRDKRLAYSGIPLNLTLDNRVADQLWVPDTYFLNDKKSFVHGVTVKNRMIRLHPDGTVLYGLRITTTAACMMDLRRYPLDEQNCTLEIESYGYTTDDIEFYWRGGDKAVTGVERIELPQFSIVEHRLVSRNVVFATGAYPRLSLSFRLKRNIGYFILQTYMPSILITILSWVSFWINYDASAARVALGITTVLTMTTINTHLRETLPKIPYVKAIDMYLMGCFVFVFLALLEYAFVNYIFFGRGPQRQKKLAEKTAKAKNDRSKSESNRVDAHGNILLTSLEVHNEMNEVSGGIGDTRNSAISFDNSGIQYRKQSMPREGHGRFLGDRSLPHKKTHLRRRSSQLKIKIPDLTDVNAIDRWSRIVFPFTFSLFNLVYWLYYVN
# Sequence (P18507 40-475): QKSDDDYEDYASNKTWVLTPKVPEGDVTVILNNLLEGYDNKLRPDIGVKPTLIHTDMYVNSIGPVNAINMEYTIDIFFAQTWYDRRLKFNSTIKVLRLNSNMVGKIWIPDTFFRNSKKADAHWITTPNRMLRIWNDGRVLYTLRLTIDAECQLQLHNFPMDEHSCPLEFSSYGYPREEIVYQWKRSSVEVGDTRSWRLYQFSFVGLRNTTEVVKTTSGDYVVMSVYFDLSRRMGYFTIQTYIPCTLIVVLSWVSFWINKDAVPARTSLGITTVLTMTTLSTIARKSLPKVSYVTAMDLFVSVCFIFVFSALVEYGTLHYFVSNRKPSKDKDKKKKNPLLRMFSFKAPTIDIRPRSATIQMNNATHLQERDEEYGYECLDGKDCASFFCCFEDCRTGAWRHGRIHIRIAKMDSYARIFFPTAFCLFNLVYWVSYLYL
# ASSAY_NOTES: Two-electrode voltage clamp of β3γ2L GABAARs expressed at various β3:γ2L mRNA ratios in Xenopus oocytes
# Format: cell-based
# CONDITION_INFO: EC50 (95% CI) of direct activation, β3γ2L 1:100; -60 mV
MEASURE: pEC50
When answering, recall that pEC50 equals minus log10 of the concentration in mol/L, and write that number alone.

Enquiry: State, in one line, measured pEC50 of "CC(C)c1cccc(C(C)C)c1O"
Return: 4.13

// next item, pEC50 requested
Enquiry: Please give the documented pEC50 of "COc1ccccc1-c1cc(=O)c2cc(C)ccc2o1"
Return: 4.20
